- target of assay: T1, human B7-H3 (Y-Biologics Inc.) (human, UniProt Q5ZPR3 29-466)
- T1 chain: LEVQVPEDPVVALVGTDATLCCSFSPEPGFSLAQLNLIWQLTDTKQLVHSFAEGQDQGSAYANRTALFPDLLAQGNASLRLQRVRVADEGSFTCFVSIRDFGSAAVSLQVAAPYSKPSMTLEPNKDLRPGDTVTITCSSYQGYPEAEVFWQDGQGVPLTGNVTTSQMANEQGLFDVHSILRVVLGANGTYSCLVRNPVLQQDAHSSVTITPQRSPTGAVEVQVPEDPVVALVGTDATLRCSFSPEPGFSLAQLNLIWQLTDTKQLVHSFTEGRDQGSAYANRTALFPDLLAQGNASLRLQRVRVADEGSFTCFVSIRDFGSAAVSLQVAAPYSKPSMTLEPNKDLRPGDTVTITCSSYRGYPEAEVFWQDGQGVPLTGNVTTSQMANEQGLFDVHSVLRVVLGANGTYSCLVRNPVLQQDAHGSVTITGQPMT
- assay: BLI (Octet QKe), antibody on AHC biosensor, human B7-H3 as analyte, 1:1 global fit
measurement type: koff (s⁻¹)
Express your answer in s⁻¹, writing the number without its unit.

Answered cases to consult:
AB5 (SA2563, CD276-039C05_LS_002A11) (antibody, human IgG1, V domains shown, Whole human IgG; also called CD276-39C05_LS_002A11) VH: QVQLVESGAEVKKPGSSVKVSCKASGGTFSSYAISWVRQAPGQGLEWMGRIIPILGIANYAQKFQGRVTITADKSTSTAYMELSSLRSEDTAVYYCANGGDSSSWYTFDYWGQGTLITVSS VL: DIQMTQSPSTLSASVGDRLTITCRASQNINSWLAWYQQKPGKAPKLLIYKASYLQTGVPSRFSGSGSGTEFTLTITSLQPDDFASYYCQQYDSNPLTFGGGTKVEIK :: 0.0002
AB6 (SA2566, CD276-039C05_LS_002B07) (antibody, human IgG1, V domains shown, Whole human IgG; also called CD276-39C05-LS-002B07) VH: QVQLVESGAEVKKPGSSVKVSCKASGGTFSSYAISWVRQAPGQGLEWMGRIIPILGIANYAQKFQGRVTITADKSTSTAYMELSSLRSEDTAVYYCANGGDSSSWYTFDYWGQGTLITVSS VL: DIQMTQSPSSLSASVGDRVTITCRASQGISSYLAWYQQKPGKAPKLLIYAASTLQSGVPSRFSGSGSGTDFTLTISSLQPEDFATYYCQQYYSFPLTFGGGTKVEIK :: 0.0006
AB8 (SA2579, CD276-039C05_LS_002H07) (antibody, human IgG1, V domains shown, Whole human IgG; also called CD276-39C05-LS-002H07) VH: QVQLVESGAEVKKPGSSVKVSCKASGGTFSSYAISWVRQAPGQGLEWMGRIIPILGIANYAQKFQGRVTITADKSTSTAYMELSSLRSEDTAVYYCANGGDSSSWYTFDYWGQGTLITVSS VL: DIQMTQSPSTLSASVGDRVTITCRASQSIDNWLAWYQQKPGKAPKLLIYKASSLQSGVPSRFSGSGSGTEFTLTISSLQPDDFASYYCQQYDSNPLTFGGGTKVEIK :: 0.0003

API: the following record is the query input.
What value of measured koff is listed for AB9 (SC0041, CD276-m8524), control anti-B7-H3 antibody (antibody, human IgG1, V domains shown, Control antibody produced by the applicants; Human IgG1, Kappa-T2S) VH: QVQLQQSGAEVKKPGSSVKVSCKASGGTFSSYAISWVRQAPGQGLEWMGGIIPILGIANYAQKFQGRVTITADESTSTAYMELSSLRSEDTAVYYCARGGSGSYHMDVWGKGTTVTVSS VL: EIVLTQSPATLSLSPGERATLSCRASQSVSSYLAWYQQKPGQAPRLLIYDASNRATGIPARFSGSGSGTDFTLTISSLEPEDFAVYYCQQRSNWPPRITFGQGTRLEIKR ?
0.0002
